# protocol: UV absorption (λmax, εmax) in solution
# Format: physicochemical
# condition-details: ethanol
property-measured: UV λmax (nm)

                                   compound  value
0  c1ccc(Cn2cccc2-c2nc(Nc3ccc(-c4ccccc4)cc3)nc(Nc3ccc(-c4ccccc4)cc3)n2)cc1 [Example 3]    309
1  c1ccc(Cn2cccc2-c2nc(Nc3ccc(-c4cn5ccccc5n4)cc3)nc(Nc3ccc(-c4cn5ccccc5n4)cc3)n2)cc1 [Example 6]    332
2  CCCCOC(=O)c1ccc(Nc2nc(Nc3ccc(C(=O)OCCCC)cc3)nc(-c3cccn3C(c3ccccc3)c3ccccc3)n2)cc1 [Example 7]    315
3  O=C1c2ccccc2-c2cc(Nc3nc(Nc4ccc5c(c4)-c4ccccc4C5=O)nc(-c4cccn4Cc4ccccc4)n3)ccc21 [Example 5]    292
4  O=C(c1ccccc1)c1ccc(Nc2nc(Nc3ccc(C(=O)c4ccccc4)cc3)nc(-c3cccn3Cc3ccccc3)n2)cc1 [Example 4]    330

* * *

# protocol: UV absorption (λmax, εmax) in solution
# Format: physicochemical
# condition-details: ethanol
Listing of recorded εmax by entry.
property-measured: εmax (M⁻¹ cm⁻¹)

                         structure_notation  value
0  c1ccc(Cn2cccc2-c2nc(Nc3ccc(-c4ccccc4)cc3)nc(Nc3ccc(-c4ccccc4)cc3)n2)cc1  73000
1  c1ccc(Cn2cccc2-c2nc(Nc3ccc(-c4cn5ccccc5n4)cc3)nc(Nc3ccc(-c4cn5ccccc5n4)cc3)n2)cc1  71000
2  O=C(c1ccccc1)c1ccc(Nc2nc(Nc3ccc(C(=O)c4ccccc4)cc3)nc(-c3cccn3Cc3ccccc3)n2)cc1  80000
3  O=C1c2ccccc2-c2cc(Nc3nc(Nc4ccc5c(c4)-c4ccccc4C5=O)nc(-c4cccn4Cc4ccccc4)n3)ccc21  77000
4  CCCCOC(=O)c1ccc(Nc2nc(Nc3ccc(C(=O)OCCCC)cc3)nc(-c3cccn3C(c3ccccc3)c3ccccc3)n2)cc1  81000

* * *

property-measured: melting point

In [3]: df
Out[3]:
                                   compound          value
0  Oc1ccc(-c2nc(-c3ccc(O)cc3O)nc(-c3cccn3Cc3ccccc3)n2)c(O)c1       > 275 °C
1  CCCCOC(=O)c1ccc(Nc2nc(Nc3ccc(C(=O)OCCCC)cc3)nc(-c3cccn3C(c3ccccc3)c3ccccc3)n2)cc1    80 to 82 °C
2  c1ccc(Cn2cccc2-c2nc(Nc3ccc(-c4ccccc4)cc3)nc(Nc3ccc(-c4ccccc4)cc3)n2)cc1  185 to 186 °C
3  CCCCC(CC)COc1ccc(-c2nc(-c3ccc(OCC(CC)CCCC)cc3O)nc(-c3cccn3Cc3ccccc3)n2)c(O)c1 (stereo not shown)    66 to 68 °C
4  O=C1c2ccccc2-c2cc(Nc3nc(Nc4ccc5c(c4)-c4ccccc4C5=O)nc(-c4cccn4Cc4ccccc4)n3)ccc21  140 to 142 °C
5  CCCCOC(=O)c1ccc(Nc2nc(Nc3ccc(C(=O)OCCCC)cc3)nc(-c3cccn3Cc3ccccc3)n2)cc1  173 to 174 °C
6  O=C(c1ccccc1)c1ccc(Nc2nc(Nc3ccc(C(=O)c4ccccc4)cc3)nc(-c3cccn3Cc3ccccc3)n2)cc1  115 to 118 °C

Provenance of the data: patent US20080253978A1
